Test system: large cell lung cancer cell lines (NCI-H460)
experimental.protocol: MTT cell growth inhibition assay, NCI-H460
Assay type: cell-based
condition: Homo sapiens, 48 h, NCI-H460 cells, two days, read-out: IC50 ± SD NCI-H460
attribute.measured: IC50

CCCNC(=O)c1c(C)[nH]c(/C=C2\C(=O)Nc3ccc(F)cc32)c1Cl [Compound 14d] :: > 100 µM

Quick batch: IC50 for everything below.
1. CCN(CC)CCNC(=O)c1c(C)[nH]c(/C=C2\C(=O)Nc3ccc(C)cc32)c1Cl [Compound 14l]
2. Cc1[nH]c(/C=C2\C(=O)Nc3ccc(F)cc32)c(Cl)c1C(=O)NCCN1CCOCC1 [Compound 14a]

A:
1. > 100 µM
2. > 100 µM
